# Tested on: CD2F1 mice, L1210 leukemia ip, survival T/C
# assay-overview: NCI In Vivo Anticancer Drug Screen. Data for tumor model L1210 Leukemia (intraperitoneal) in CD2F1 (CDF1) mice
# condition-summary: endpoint: mean survival time; dose: 200.0 mg/kg/injection; schedule: Q04DX003 (ip); vehicle: saline with Tween-80; higher = longer survival
Inconclusive results and toxic doses are left out.
# T/C listing for each entry below

# given-smiles, T/C
records = [
    ("Cc1cnc(O[Si](C)(C)C)nc1O[Si](C)(C)C", "98 % of control"),
    ("Nc1ccc(Br)cc1", "100 % of control"),
    ("NCc1ccccc1", "99 % of control"),
    ("C1CCCCCC2=C(CCCC1)CCCO2", "94 % of control"),
    ("O=C(C(Oc1ccc(Cl)cc1)Oc1ccc(Cl)cc1)N(O)c1ccccc1OCc1ccccc1", "96 % of control"),
    ("COc1cccc(CNc2ncnc3nc[nH]c23)c1", "91 % of control"),
    ("[N-]=[N+]=CC(=O)c1c(Cl)n(-c2ccccc2)c2ccccc12", "101 % of control"),
]

* * *

# T/C listing for each entry below
# Tested on: CD2F1 mice, L1210 leukemia ip, survival T/C
# assay-overview: NCI In Vivo Anticancer Drug Screen. Data for tumor model L1210 Leukemia (intraperitoneal) in CD2F1 (CDF1) mice
# condition-summary: endpoint: mean survival time; dose: 12.5 mg/kg/injection; schedule: Q01DX009 (ip); vehicle: other; higher = longer survival
Toxic doses and inconclusive results are not listed.

# compound, T/C
data = [
    ("CCOC1(C)OC2OC(COC(c3ccccc3)(c3ccccc3)c3ccccc3)C(O)C(O)C2O1 (centres undefined)", "97 % of control"),
    ("COc1ccc(C(=O)NCCc2ccc(OC)c(OC)c2)cc1O", "100 % of control"),
    ("NC(=O)Oc1cc(OC(N)=O)cc(N(CCCl)CCCl)c1", "103 % of control"),
    ("O=C1c2ccccc2C(=O)c2c(O)c(CCCN3C(=O)c4ccccc4C3=O)cc(O)c21", "89 % of control"),
]

* * *

# System: CD2F1 mice, L1210 leukemia ip, survival T/C
# assay-overview: NCI In Vivo Anticancer Drug Screen. Data for tumor model L1210 Leukemia (intraperitoneal) in CD2F1 (CDF1) mice
# condition-summary: endpoint: mean survival time; dose: 400.0 mg/kg/injection; schedule: Q01DX001 (ip); vehicle: saline; higher = longer survival
Inconclusive results and toxic doses are left out.

# compound, T/C
records = [
    ("COC(=O)C(N)CSCc1ccccc1 (stereo unspecified)", "100 % of control"),
    ("COC1CC(O)C(OS(=O)(=O)c2ccc(C)cc2)C(C)O1 (stereo unspecified)", "102 % of control"),
    ("Cc1ccc2nc(-c3ccc(NC(=O)c4ccc(C(=O)Nc5ccc(-c6nc7ccc(C)cc7s6)cc5)cc4)cc3)sc2c1", "86 % of control"),
    ("CC(C)(C)OC(=O)NCCCCC(NC(=O)OC(C)(C)C)C(=O)O (stereo unspecified)", "97 % of control"),
    ("CCC(C)(CC(=O)OC)C(=O)OC (stereo unspecified)", "108 % of control"),
    ("O=c1[nH]c(=S)[nH]c2ncn(C3OC(CO)C(O)C3O)c12 (stereo unspecified)", "102 % of control"),
    ("O=C1OCC2(C(=O)O)C(=O)OCC12 (stereo unspecified)", "101 % of control"),
    ("OC(CN1CCOCC1)CN1CCOCC1", "103 % of control"),
    ("CCCCCCC1=C(O)C(=O)C(CCCCCC)=C(O)C1=O", "97 % of control"),
    ("COc1ccccc1NC(=O)CSC(N)=O", "97 % of control"),
    ("c1ccc(-c2ccc(-c3nnn4ccccc34)cc2)cc1", "95 % of control"),
]

* * *

# T/C listing for each entry below
# System: CD2F1 mice, L1210 leukemia ip, survival T/C
# assay-overview: NCI In Vivo Anticancer Drug Screen. Data for tumor model L1210 Leukemia (intraperitoneal) in CD2F1 (CDF1) mice
# condition-summary: endpoint: mean survival time; dose: 12.5 mg/kg/injection; schedule: Q04DX003 (ip); vehicle: saline with Tween-80; higher = longer survival
Inconclusive results and toxic doses are left out.

# given-smiles, target-or-system, T/C
rows = [
    ("Cc1cc(F)ccc1[As](=O)(O)O", "CD2F1 mice, L1210 leukemia ip, survival T/C", "95 % of control"),
    ("CCCCCCCCCCCCCC[n+]1ccc(C(N)=O)cc1", "CD2F1 mice, L1210 leukemia ip, survival T/C", "107 % of control"),
    ("C=CC[As](=O)(O)c1ccccc1Cl", "CD2F1 mice, L1210 leukemia ip, survival T/C", "105 % of control"),
]

* * *

# System: CD2F1 mice, L1210 leukemia ip, survival T/C
# assay-overview: NCI In Vivo Anticancer Drug Screen. Data for tumor model L1210 Leukemia (intraperitoneal) in CD2F1 (CDF1) mice
# condition-summary: endpoint: mean survival time; dose: 200.0 mg/kg/injection; schedule: Q04DX003 (ip); vehicle: saline with Tween-80; higher = longer survival
Toxic doses and inconclusive results are not listed.

# compound, T/C
records = [
    ("COC(=O)C(Br)C(Br)c1ccccc1 (centres undefined)", "106 % of control"),
    ("O=S(=O)(Nc1ccc(NS(=O)(=O)c2ccccc2)c2ccccc12)c1ccccc1", "91 % of control"),
    ("Cc1cc(C(C)(C)C)c(Oc2ccc([N+](=O)[O-])cc2S(=O)(=O)O)c(C(C)(C)C)c1", "101 % of control"),
    ("Cc1cc(C)c(C(=O)CC(O)(C(F)(F)F)C(F)(F)F)c(C)c1", "107 % of control"),
    ("S=C1NCCO1", "93 % of control"),
    ("O=S(=O)(Nc1ccccn1)c1ccc(Cl)cc1", "95 % of control"),
    ("C=C1CCCCCCCCCCC1O (centres undefined)", "95 % of control"),
    ("CC(C)(C)OC(=O)NC(Cc1c[nH]c2ccccc12)C(=O)ON1C(=O)CCC1=O (centres undefined)", "95 % of control"),
    ("CC1=NN(c2ccccc2)C(=O)C1N=Nc1ccc([As](=O)(O)O)c(O)c1 (centres undefined)", "100 % of control"),
    ("c1ccc2cc(N=NNc3ccc4ccccc4c3)ccc2c1", "92 % of control"),
    ("ClSc1c(Cl)c(Cl)c(Cl)c(Cl)c1Cl", "101 % of control"),
    ("CC(SCc1ccccc1)C(NC(=O)c1ccccc1)C(=O)O (centres undefined)", "98 % of control"),
    ("COc1ccc(C=Nc2ccc(C)cc2)cc1", "115 % of control"),
    ("O=C1C(=O)c2ccccc2C(O)=C1CC1=C(O)c2ccccc2C(=O)C1=O", "101 % of control"),
    ("OC(c1ccccc1)(c1ccccc1)c1ccccc1 (tested in a mixture with another compound)", "91 % of control"),
    ("CC1C=CC(C(=O)Nc2ccc(Cl)c(Cl)c2)N1C (centres undefined)", "92 % of control"),
    ("S=C(S)OCc1ccccc1.[Pt]", "102 % of control"),
    ("COc1c(NS(=O)(=O)c2ccccc2)cc2c3c(cccc13)/C(=C1\\Cc3cccc4c(OC)c(NS(=O)(=O)c5ccccc5)cc1c34)C2", "91 % of control"),
    ("CC(C)(C)C1CC=CCC1 (centres undefined)", "98 % of control"),
    ("Cc1ccc(S(=O)(=O)OCC(OS(=O)(=O)c2ccc(C)cc2)C(O)C(O)C(O)CO)cc1 (centres undefined)", "91 % of control"),
    ("Clc1ccccc1-c1nc2ccccc2s1", "96 % of control"),
    ("O=C(O)c1ccccc1C(=O)c1cccc2ccccc12", "96 % of control"),
    ("Cc1cc(O)c(Br)c(C)c1Br", "97 % of control"),
    ("Cc1cc(=O)[nH]c(Nc2ccccc2)n1", "97 % of control"),
]

* * *

# System: CD2F1 mice, L1210 leukemia ip, survival T/C
# assay-overview: NCI In Vivo Anticancer Drug Screen. Data for tumor model L1210 Leukemia (intraperitoneal) in CD2F1 (CDF1) mice
# condition-summary: endpoint: mean survival time; dose: 25.0 mg/kg/injection; schedule: Q01DX005 (ip); vehicle: water; higher = longer survival
Toxic doses and inconclusive results are not listed.
# T/C listing for each entry below

# compound, T/C
measured = [
    ("CN(N)c1nc2c(=O)[nH]cnc2n1C1OC(CO)C(O)C1O (stereo not given)", "101 % of control"),
    ("Nc1ncnc(N2C(=S)OC3C(O)C(CO)OC32)c1N (stereo not given)", "88 % of control"),
    ("COC(=O)c1csc(C2OC(CO)C(O)C2O)n1 (stereo not given)", "107 % of control"),
    ("O=c1nc2c(ncn2C2OC(CO)C(O)C2O)c(NCCc2ccccc2)[nH]1 (stereo not given)", "98 % of control"),
    ("CCCC(=O)Nc1ncnc2c1[nH]c(=O)n2C1OC2COP(=O)(O)OC2C1O (stereo not given)", "93 % of control"),
]
